- Tested on: UACC-62 melanoma
- METHOD DESCRIPTION: NCI-60 one-dose screen, 48 h (100 = growth as untreated, 0 = no growth, -100 = all killed)
- STATED CONDITIONS: 10 µM unless noted
This is part of a sample that, as a whole, favours compounds with a hit. Of some 83,000 tested, about 20% had one in any assay. The source made the active and inactive calls. The calls were made as follows: active = growth percent below 10; inactive = the rest.
Readings of growth for the listed molecules
READOUT KIND: growth

>>> assay_value("COc1ccc(-c2cc(=O)oc3c4c(ccc23)OCN(Cc2ccc(F)cc2)C4)cc1")
"61.6% (inactive)"
>>> assay_value("CCCCOC(=O)C1CC[C@H]2[C@@H]3CCc4cc(OC(=O)c5cccc6c(=O)c7ccccc7[nH]c56)ccc4[C@H]3CC[C@]12C (some centres undefined)")
"-100% [50 µM] (active)"
>>> assay_value("COc1ccc(-c2nc3sc(C)cn3c2/C=C/C(=O)c2cc(OC)c(OC)c(OC)c2)cc1")
"36.7% (inactive)"
>>> assay_value("O=C1/C(=C/c2ccc([N+](=O)[O-])cc2)Oc2ccc(O)cc21")
"41.4% (inactive)"
>>> assay_value("Cc1cc(NS(=O)(=O)c2ccc(NC(=O)COc3ccc(-c4cc5ccccc5[nH]4)cc3)cc2)no1")
"31.4% (inactive)"
>>> assay_value("CCOC(=O)c1cn2c3c(cc(F)cc3c1=O)C(CC)c1ccccc1C2 (centres undefined)")
"105% (inactive)"
>>> assay_value("O=S(=O)(Nc1ccccc1Cl)c1ccc(-c2cnc(C3CC3)o2)cc1")
"40.2% (inactive)"
>>> assay_value("O=c1oc2ccccc2cc1-c1csc(N=Nc2c(O)[nH]c3ccc(Cl)cc23)n1")
"98.2% (inactive)"
>>> assay_value("CS(=O)(=O)Nc1cccc(C(=O)NCc2ccc(N3CCOCC3)cc2)c1")
"113% (inactive)"

---

- Test system: SW-620 colon
- METHOD DESCRIPTION: NCI-60 one-dose screen, 48 h
- STATED CONDITIONS: 10 µM unless noted
Compounds without any hit were thinned out: in the full panel of roughly 83,000, 20% have a hit. Active and inactive are the calls of the source. The calls were made as follows: active = growth percent below 10; inactive = the rest.
Outcome codes: yes for active, no for inactive

>>> assigned_label("COc1ccccc1CNCCCCCCCCCCCCN1C(=O)c2ccc3c4c(ccc(c24)C1=O)C(=O)N(CCCCCCCCCCCCNCc1ccccc1OC)C3=O")
"no"
>>> assigned_label("Cc1ccc(NS(=O)(=O)c2ccc(-c3cnc(C4CC4)o3)cc2)cc1")
"no"
>>> assigned_label("Cc1nn(-c2ccccc2)c2nc3nc4c(c(N)c3c(-c3ccc(Cl)cc3)c12)CCCC4")
"no"
>>> assigned_label("O=C1C2CC3C(CC2C(=O)[N]1[Sn]([c]1ccccc1)([c]1ccccc1)[c]1ccccc1)C1(Cl)C(Cl)=C(Cl)C3(Cl)C1(Cl)Cl (centres undefined)")
"yes"
>>> assigned_label("O=C(c1ccccc1)C(Br)C(Br)c1cccc([N+](=O)[O-])c1 (centres undefined)")
"yes"
>>> assigned_label("Cc1nc(-c2ccccc2)cc2c(O)c(C(=O)N/N=C/Cc3ccccc3)[nH]c(=O)c12")
"no"
>>> assigned_label("Cc1c(C(=O)Nc2nc(-c3ccccc3)cs2)nnn1-c1ccccc1Br")
"no"
>>> assigned_label("c1ccc(-c2nc(N3CCOCC3)c3c4c(sc3n2)CCCCCC4)nc1")
"no"
>>> assigned_label("Clc1ccccc1Nc1ccc2nnc(-c3ccncc3)n2n1")
"no"
>>> assigned_label("O=c1c2cc(F)ccc2oc2c(NCCNCCO)nc3ccccc3c12")
"no"
>>> assigned_label("COc1ccc(-c2[nH]ncc2Nc2cc(OC)c(OC)c(OC)c2)cc1")
"no"
>>> assigned_label("CCOC(=O)c1[nH]c2cc(Cl)ccc2c1[C@@H](C(=O)NC(C)(C)C)N(CC)C(=O)CCCCC#Cc1cccc2c1CN(C1CCC(=O)NC1=O)C2=O (some centres undefined)")
"no"
>>> assigned_label("CC1=C(C/C=C(\\C)CCC[C@H](C)CCC[C@H](C)CCCC(C)C)C(=O)c2ccccc2C1=O")
"no"
>>> assigned_label("CN1CCn2c(c(Sc3ccc(C(=O)NO)cc3)c3ccccc32)C1=O")
"yes"
>>> assigned_label("CNc1ccc(Br)cc1-c1n[nH]c(=O)[nH]c1=O")
"no"
>>> assigned_label("c1ccc2cc(-c3n(Cc4ccc5ccccc5n4)c4ccccc4[n+]3Cc3ccc4ccccc4n3)ccc2c1")
"yes"
>>> assigned_label("Cn1c2c(cc(S(=O)(=O)c3ccccc3)c1=O)CCc1c-2cnn1-c1cccc(Cl)c1")
"no"
>>> assigned_label("CC(=O)c1cc(C)c(OC(=O)c2ccccc2)c(C)c1")
"no"
>>> assigned_label("C=CC(=O)N1CC2(CC(n3nc(-c4ccc(Oc5ccccc5)cc4)c4c(N)ncnc43)C2)C1")
"no"
>>> assigned_label("O=S(=O)(OCCO)c1ccccc1")
"no"
>>> assigned_label("COc1ccc(/C=C2\\Oc3cc(C)c(Cl)cc3C2=O)cc1OC")
"no"
>>> assigned_label("CC(C)NCC(O)COc1ccc(CCOCC2CC2)cc1 (centres undefined)")
"no"
>>> assigned_label("COC(=O)c1c2c(c(C)[n+]([O-])c1C)C(=O)C=C(NCc1ccc(F)cc1)C2=O")
"yes"
>>> assigned_label("Clc1ccc(C2=NN(c3ccccc3)[C@H](c3cn(-c4ccccc4)nc3-c3ccccc3)C2)cc1")
"no"
>>> assigned_label("Cc1nn(-c2ccccc2)c2nc3nc4c(c(N)c3c(-c3ccc(Cl)cc3)c12)CCC4")
"no"
>>> assigned_label("O=c1[nH]c(=S)[nH]c(=O)n1Cc1cccc2ccccc12")
"no"
>>> assigned_label("COc1cc2nc(SCc3cc(OC)c(OC)c(OC)c3)n(-c3ccccc3OC)c(=O)c2cc1OC")
"no"
>>> assigned_label("CCOc1ccc(-c2cnnn2-c2nonc2-n2cccc2)cc1")
"no"
>>> assigned_label("CN1CCN(CCCn2c3c(sc4ncccc43)c(=O)n3nnc(-c4ccccc4)c23)CC1")
"yes"
>>> assigned_label("CCOC(=O)c1c(-c2cc(OC)c(OC)c(OC)c2)csc1N")
"no"
>>> assigned_label("COc1cc(-c2nc(SC(C)C)nc(Nc3ccccc3C)c2C#N)cc(OC)c1OC")
"no"
>>> assigned_label("Cc1nc2cc(Nc3nc(Nc4ccc(F)cc4)nc(N4CCN(C)CC4)n3)ccc2n1Cc1ccccc1")
"no"
>>> assigned_label("COc1ccc(-c2nc(Nc3ccc(F)cc3)nc(Nc3ccc4c(c3)nc(C)n4Cc3ccccc3)n2)cc1")
"no"
>>> assigned_label("O=C(CCCCCCC(=O)Nc1ccc2c(c1)/C(=C/c1ccc[nH]1)C(=O)N2)NO")
"yes"
>>> assigned_label("O=C(Nc1ccc(Cl)c(Cl)c1)OCn1ncc2ccc([N+](=O)[O-])cc21")
"no"
>>> assigned_label("CN1CCN(c2ccc3nc(-c4ccc5nc(-c6ccc(C(F)(F)F)cc6)[nH]c5c4)[nH]c3c2)CC1")
"yes"
>>> assigned_label("CC1(C)N=C(N)N=C(N)N1c1cccc(OCCOc2cccc([N+](=O)[O-])c2)c1")
"no"
>>> assigned_label("CCCCc1ccc(C(O)(CCN2CC3CCC(CC3)C2)c2ccccc2)cc1 (centres undefined)")
"no"
>>> assigned_label("O=C(N/N=C/c1ccc(F)cc1)c1[nH]c2ccc(I)cc2c1-c1ccccc1")
"no"

From: PubChem BioAssay (NCI)
